GI50 by entry:
Test system: OVCAR-3 ovarian
experimental.protocol: NCI tumour cell line growth inhibition, 48 h
reported.property: GI50

* COc1cc(C#Cc2ccc(=O)oc2C#Cc2ccccc2)cc(OC)c1OC | 1930 nM
* [Cl-].[O-]/N=C(\c1ccccc1)c1ccccn1.[O-]/N=C(\c1ccccc1)c1ccccn1.[O-]/N=C(\c1ccccc1)c1ccccn1.[Sm+3] | 18000 nM
* N[C@H](C(=O)O)[C@H]1ON=C(Cl)[C@@H]1O | 449 nM
* C#CCOc1cccc(-c2ncnc3cc(NC(=O)CCl)ccc23)c1 | 617 nM
* CC(=O)[O][Ga]([Cl])[O]C(C)=O | > 100000 nM
